Attribute: composite z-score
experiment: small-molecule microarray binders of probe aEGFR, primary screen, biochemical, biotinylated probe, 635/667 nm fluorescence (AID 1097); conditions: higher = more signal;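 note: probe is a biotinylated anti-EGFR antibody binding compounds printed on slides; score combines fluorescence near 667 nm and signal to noise of each spot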

Reference set, count: 5
O=C1CCCC(C2=CCCCC2=O)C1 (centres undefined) | -0.029
CCN1C(=O)[C@H]2[C@H]3[C@H](O)[C@H](O)CC(=O)[C@H]3CC[C@H]2C1=O | -0.0989
Cn1c(=O)n2n(c1=O)[C@H]1[C@H](O)[C@@H]3O[C@@H]3C(=NOCc3ccccc3)[C@H]1CC2 | -0.118
CCC=CCCC(OC(=O)c1ccc(Br)cc1)C1=CCCCC1=O (centres undefined) | -0.0187
O=C1OCCC=C1C(O)CCc1ccccc1 (centres undefined) | 0.0009

Per the record, C[C@@H](c1ccccc1)N1C(=O)[C@H]2[C@H]3[C@H](O)[C@H](O)CC(=NO[C@@H]4O[C@H](CO)[C@@H](O)[C@H](O)[C@H]4O)[C@H]3CC[C@H]2C1=O has composite z-score of -0.0223

Per the record, COC(=O)[C@H]1O[C@@H](c2c(OC)c(OC)c(C)c(OC)c2OC)[C@H](C)[C@@H](O)[C@H]1C has composite z-score of 0.0821

Per the record, O=C1[C@H]2[C@H]3[C@H](O)[C@H](O)CC(=NOCc4ccccc4)[C@@H]3CC[C@H]2C(=O)N1C[C@@H]1CCCO1 has composite z-score of -0.0151

Per the record, COc1cccc([C@@H]2Oc3ccc(OC)cc3C(=O)[C@H]2O)c1 has composite z-score of -0.0697
